// provenance: patent US9624188B2

Exercise: for every item that follows, state its recorded pIC50.
- TARGET_DESC: Human IDO1 (Homo sapiens (Human), UniProt P14902)
- Sequence (P14902 whole entry): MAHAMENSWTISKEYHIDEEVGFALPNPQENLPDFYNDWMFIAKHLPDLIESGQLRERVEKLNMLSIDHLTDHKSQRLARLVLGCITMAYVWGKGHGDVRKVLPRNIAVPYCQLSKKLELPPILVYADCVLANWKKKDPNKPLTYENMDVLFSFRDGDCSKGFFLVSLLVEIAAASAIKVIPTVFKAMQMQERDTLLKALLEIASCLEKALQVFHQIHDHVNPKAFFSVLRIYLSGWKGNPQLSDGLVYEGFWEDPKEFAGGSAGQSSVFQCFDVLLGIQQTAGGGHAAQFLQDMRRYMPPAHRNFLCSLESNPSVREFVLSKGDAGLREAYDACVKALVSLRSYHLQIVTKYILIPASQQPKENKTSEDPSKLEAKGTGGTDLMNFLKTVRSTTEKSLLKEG
- ASSAY_EXPLANATION: IDO Kynurenine Assay with Human IDO1/HEK293 Cells
- CONDITION_CONTEXT: 20 hours incubation, kynurenine detected with Ehrlich reagent, absorbance at 490 nm, read-out: HEK Human IDO-1 IC50
Please express pIC50 as -log10 of the molar concentration.

Q) Could you tell me which pIC50 is on file for Cc1ncc(NC(=O)Nc2cc([C@H](C)CC(=O)O)ccc2N(CC(C)C)CC(C)C)cn1 ?
A) 7.66

Q) Could you tell me which pIC50 is on file for Cc1ncc(NC(=O)Nc2cc([C@@H](C)CC(=O)O)ccc2N(CC(C)C)CC(C)C)cn1 ?
A) 6.77

Q) Could you tell me which pIC50 is on file for CC(C)CN(CC(C)C)c1ccc(C(CC(=O)O)C(F)(F)F)cc1NC(=O)Nc1ccc(F)cc1F (stereo not shown) ?
A) 9.15

Q) Could you tell me which pIC50 is on file for CC(C)CN(CC(C)C)c1ccc([C@@H](C)CC(=O)O)cc1NC(=O)Nc1cncnc1 ?
A) 7.54

Q) Could you tell me which pIC50 is on file for CC(C)CN(CC(C)C)c1ccc([C@H](C)CC(=O)O)cc1NC(=O)Cc1ccc(C#N)cc1 ?
A) 8.30

Q) Could you tell me which pIC50 is on file for Cc1ccc(NC(=O)Nc2cc([C@@H](C)CC(=O)O)ccc2N(CC(C)C)CC(C)C)cc1 ?
A) 7.77

Q) Could you tell me which pIC50 is on file for Cc1cc(NC(=O)Nc2cc(C(C)CC(=O)O)ccc2N(CC(C)C)CC(C)C)on1 (racemic) ?
A) 8.52
